- procedure details: The drug is tested on the gut metagenome community of A-08 with ENA study accession number: PRJEB31790 for biotransformation under anaerobic condition. The drug concentrations were measured over 7 timepoints collected between 0 and 12 hours of incubation by liquid-chromatography-coupled mass spectrometry (LC–MS)
- Format: ADME
- Set-up: dose 5 uM, timepoint 0, 0.75, 1.5, 3, 6, 9, 12 hours
- condition notes: 5 µM
recorded endpoint: Bacterial Biotransformation

[
  {
    "compound": "CO[C@H]1C[C@@H]2CC[C@@H](C)[C@@](O)(O2)C(=O)C(=O)N2CCCC[C@H]2C(=O)O[C@H]([C@H](C)C[C@@H]2CC[C@@H](OCCO)[C@H](OC)C2)CC(=O)[C@H](C)/C=C(\\C)[C@@H](O)[C@@H](OC)C(=O)[C@H](C)C[C@H](C)/C=C/C=C/C=C/1C",
    "Bacterial Biotransformation": "Compound metabolized"
  },
  {
    "compound": "C[C@]12CCC(=O)C=C1CC[C@@H]1[C@@H]2[C@@H](O)C[C@@]2(C)[C@H]1CC[C@]2(O)C(=O)CO [HYDROCORTISONE]",
    "Bacterial Biotransformation": "Compound metabolized"
  },
  {
    "compound": "CN(Cc1cnc2nc(N)nc(N)c2n1)c1ccc(C(=O)N[C@@H](CCC(=O)O)C(=O)O)cc1 [METHOTREXATE]",
    "Bacterial Biotransformation": "Compound metabolized"
  },
  {
    "compound": "CCOC(=O)[C@H](CCc1ccccc1)N[C@@H](C)C(=O)N1[C@H](C(=O)O)C[C@@H]2CCC[C@@H]21",
    "Bacterial Biotransformation": "Compound NOT metabolized"
  },
  {
    "compound": "C[C@]12C=CC(=O)C=C1CC[C@@H]1[C@@H]2C(=O)C[C@@]2(C)[C@H]1CC[C@]2(O)C(=O)CO",
    "Bacterial Biotransformation": "Compound metabolized"
  },
  {
    "compound": "C[C@]12CCC(=O)C=C1CC[C@@H]1[C@@H]2C(=O)C[C@@]2(C)[C@H]1CC[C@]2(O)C(=O)CO",
    "Bacterial Biotransformation": "Compound metabolized"
  },
  {
    "compound": "C[C@H]1C[C@H]2[C@@H]3CCC4=CC(=O)C=C[C@]4(C)[C@@]3(F)[C@@H](O)C[C@]2(C)[C@@]1(O)C(=O)CO",
    "Bacterial Biotransformation": "Compound metabolized"
  },
  {
    "compound": "CCOC(=O)C1=C(COCCN)NC(C)=C(C(=O)OC)C1c1ccccc1Cl (configuration not stated)",
    "Bacterial Biotransformation": "Compound NOT metabolized"
  }
]

Ask: Form field: reported Bacterial Biotransformation of COc1ccc([C@@H]2Sc3ccccc3N(CCN(C)C)C(=O)[C@@H]2OC(C)=O)cc1
Result: Compound metabolized

Ask: What would you report for C[C@]12C=CC(=O)C=C1CC[C@@H]1[C@@H]2[C@@H](O)C[C@@]2(C)[C@H]1CC[C@]2(O)C(=O)CO ?
Result: Compound metabolized

Ask: What would you report for CO[C@H]1C[C@@H]2CC[C@@H](C)[C@@](O)(O2)C(=O)C(=O)N2CCCC[C@H]2C(=O)O[C@H]([C@H](C)C[C@@H]2CC[C@@H](O)[C@H](OC)C2)CC(=O)[C@H](C)/C=C(\C)[C@@H](O)[C@@H](OC)C(=O)[C@H](C)C[C@H](C)/C=C/C=C/C=C/1C ?
Result: Compound metabolized

Ask: What would you report for CCOc1nc2cccc(C(=O)O)c2n1Cc1ccc(-c2ccccc2-c2nnn[nH]2)cc1 ?
Result: Compound NOT metabolized

These data points were gathered from ChEMBL document CHEMBL5724806.
